Header: pIC50 / WRN enzyme (Homo sapiens) / multiple publications
pIC50: −log10 of the molar value.
Label scheme for pIC50: lower than 8 is no (0), 8 and above is yes (1).

| compound | assayed.system | answer.label |
| --- | --- | --- |
| CCc1c(N2CCN(C(=O)c3ncnc(C)c3O)CC2)c(=O)n2nc(C3C4CC(OC)CC43)nc2n1CC(=O)Nc1ccc(C(F)(F)F)cc1Cl (stereo not drawn) | WRN enzyme (Homo sapiens) | yes (1) |
| CCc1c(N2CCN(C(=O)c3ncccc3O)CC2)c(=O)n2nc(-c3[nH]nc4sccc34)nc2n1CC(=O)Nc1ccc(C(F)(F)F)cc1Cl | WRN enzyme (Homo sapiens) | yes (1) |
| CCc1c(N2CCN(C(=O)c3ncccc3O)CC2)c(=O)n2nc(-c3cc4cn[nH]c4s3)nc2n1CC(=O)Nc1ccc(C(F)(F)F)cc1Cl | WRN enzyme (Homo sapiens) | yes (1) |
| CC(=O)N1CCN(c2c3n(c4nc(C5=CCOCC5)nn4c2=O)C(C(=O)Nc2ccc(C(F)(F)F)cc2)CC3)CC1 (racemic) | WRN enzyme (Homo sapiens) | no (0) |
| C[C@@H]1C[C@@H](C(=O)Nc2ccc(C(F)(F)F)cc2Cl)n2c1c(N1CCN(C(=O)c3nccc(Cl)c3O)CC1)c(=O)n1nc(N3CCOCC3)nc21 | WRN enzyme (Homo sapiens) | no (0) |
| CCc1c(N2CCN(C(=O)c3ncccc3O)CC2)c(=O)n2nc(-c3cc4cnccc4s3)nc2n1CC(=O)Nc1ccc(C(F)(F)F)cc1Cl | WRN enzyme (Homo sapiens) | yes (1) |

====

Header: pIC50 / WRN enzyme (Homo sapiens) / multiple publications
pIC50: −log10 of the molar value.
Label scheme for pIC50: lower than 8 is NOT MET, 8 and above is MET.

| structure.as.smiles | answer.label |
| --- | --- |
| CCc1c(N2CCN(C(=O)c3ncnc(C)c3O)CC2)c(=O)n2nc(-c3cc4c(s3)COC4)nc2n1CC(=O)Nc1ccc(C(F)(F)F)cc1F | MET |
| Cc1ncnc(C(=O)N2CCN(c3c4n(c5nc(N6CCOCC6)nn5c3=O)[C@H](C(=O)Nc3ccc(C(F)(F)F)cc3Cl)C[C@@H]4C)CC2)c1O | NOT MET |
| CCc1c(N2CCN(C(=O)c3ncccc3O)CC2)c(=O)n2nc(-c3cnc(CO)s3)nc2n1CC(=O)Nc1ccc(C(F)(F)F)cc1Cl | MET |
| Cc1ncnc(C(=O)N2CCN(c3c4n(c5nc(C6=CCOCC6)nn5c3=O)[C@@H](C(=O)Nc3ccc(C(F)(F)F)nc3Cl)C[C@H]4C)CC2)c1O | NOT MET |
| Cc1nccc(C(=O)N2CCN(c3c4n(c5nc(C6=CCOCC6)nn5c3=O)[C@@H](C(=O)Nc3ccc(C(F)(F)F)cc3Cl)C[C@H]4C)CC2)c1O | NOT MET |
| CCc1c(N2CCN(C(=O)c3ncccc3O)CC2)c(=O)n2nc(-c3cc4c(s3)COC4)nc2n1CC(=O)Nc1ccc(C(F)(F)F)cc1Cl | MET |
| Cc1cc(F)c(O)c(C(=O)N2CCN(c3c4n(c5nc(C6=CCOCC6)nn5c3=O)[C@@H](C(=O)Nc3ccc(C(F)(F)F)cc3Cl)C[C@H]4C)CC2)n1 | NOT MET |
| Cc1ncnc(C(=O)N2CCN(c3c4n(c5nc(N6CCOCC6)nn5c3=O)[C@H](C(=O)Nc3ccc(C(F)(F)F)cc3Cl)C[C@H]4C)CC2)c1O | NOT MET |
| C[C@@H]1C[C@H](C(=O)Nc2ccc(C(F)(F)F)cc2Cl)n2c1c(N1CCN(C(=O)c3nccc(F)c3O)CC1)c(=O)n1nc(C3=CCOCC3)nc21 | NOT MET |
| CCc1c(N2CCN(C(=O)c3ncccc3O)CC2)c(=O)n2nc(-c3cnc(COC)s3)nc2n1CC(=O)Nc1ccc(C(F)(F)F)cc1Cl | MET |
| C[C@H]1C[C@@H](C(=O)Nc2ccc(C(F)(F)F)cc2Cl)n2c1c(N1CCN(C(=O)c3nccc(F)c3O)CC1)c(=O)n1nc(C3=CCOCC3)nc21 | NOT MET |
| C[C@H]1C[C@@H](C(=O)Nc2ccc(C(F)(F)F)cc2Cl)n2c1c(N1CCN(C(=O)c3ncc4c(c3O)OCC4)CC1)c(=O)n1nc(C3=CCOCC3)nc21 | NOT MET |
| Cc1cc(C(F)(F)F)ccc1NC(=O)[C@H]1C[C@@H](C)c2c(N3CCN(C(=O)c4nccc(F)c4O)CC3)c(=O)n3nc(C4=CCOCC4)nc3n21 | NOT MET |
| CCc1c(N2CCN(C(=O)c3ncnc(C)c3O)CC2)c(=O)n2nc(-c3cc4c(s3)COC4)nc2n1CC(=O)Nc1ccc(C(F)(F)F)cc1C | MET |
| CCc1c(N2CCN(C(=O)c3ncccc3O)CC2)c(=O)n2nc(C3=CCN(C(=O)[C@H](CC(C)C)NC(=O)[C@@H](O)[C@H](N)Cc4ccccc4)CC3)nc2n1CC(=O)Nc1ccc(C(F)(F)F)cc1C | NOT MET |
| C[C@@H]1C[C@H](C(=O)Nc2ccc(C(F)(F)F)cc2Cl)n2c1c(N1CCN(C(=O)c3ncncc3O)CC1)c(=O)n1nc(C3=CCOCC3)nc21 | NOT MET |
| CCc1c(N2CCN(C(=O)c3ncnc(C)c3O)CC2)c(=O)n2nc(-c3cc4c(s3)COC4)nc2n1CC(=O)Nc1ccc(Br)cc1C | MET |
| CCc1c(N2CCN(C(=O)c3ncccc3O)CC2)c(=O)n2nc(-c3ccc4c(c3)OCO4)nc2n1CC(=O)Nc1ccc(C(F)(F)F)cc1Cl | MET |
| Cc1cc(C(F)(F)F)ccc1NC(=O)[C@H]1C[C@@H](C)c2c(N3CCN(C(=O)c4ncnc(C)c4O)CC3)c(=O)n3nc(C4=CCOCC4)nc3n21 | NOT MET |
| CCc1c(N2CCN(C(=O)c3ncnc(C)c3O)CC2)c(=O)n2nc(-c3cc4c(s3)COC4)nc2n1CC(=O)Nc1ccc(C(F)(F)F)cc1Cl | MET |
| C[C@@H]1C[C@H](C(=O)Nc2ccc(C(F)(F)F)cc2Cl)n2c1c(N1CCN(C(=O)c3ncc4c(c3O)OCC4)CC1)c(=O)n1nc(C3=CCOCC3)nc21 | NOT MET |
| C[C@@H]1C[C@H](C(=O)Nc2ccc(C(F)(F)F)cc2Cl)n2c1c(N1CCN(C(=O)c3nccc(Cl)c3O)CC1)c(=O)n1nc(N3CCOCC3)nc21 | NOT MET |
| CCc1c(C2=CCN(C(=O)c3ncnc(C)c3O)CCC2)c(=O)n2nc(C3=CCOCC3)nc2n1CC(=O)Nc1ccc(C(F)(F)F)cc1Cl | MET |
